Where do the numbers come from? From patent US20220323406A1.

Tested on: ENR+CD organoids
Test: Primary screen: ATP (CellTiter-Glo 3D, CTG) cell number/viability, 2.5-D 384-well ENR+CD organoids;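 note: compounds given at plating and again on day 3 over a 6-day differentiation from ENR+CV stem-cell-enriched precursors, ATP measured on day 6, plate median as control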
Conditions: primary screen, dose 0.40 uM
Given measured Dose.FC.CTG, output fulfilled if it is greater than or equal to -0.06 log2 fold change and not fulfilled if not.

Here's what some known entries look like.
molecule="O=C1C(=O)N(Cc2ccc(Cl)c(Cl)c2)c2ccccc21 [Apoptosis Activator 2]" assigned_class=fulfilled
molecule="CO[C@H]1C[C@@H]2CC[C@@H](C)[C@@](O)(O2)C(=O)C(=O)N2CCCC[C@H]2C(=O)O[C@H]([C@H](C)C[C@@H]2CC[C@@H](OC(=O)C(C)(CO)CO)[C@H](OC)C2)CC(=O)[C@H](C)/C=C(\\C)[C@@H](O)[C@@H](OC)C(=O)[C@H](C)C[C@H](C)/C=C/C=C/C=C/1C [Temsirolimus (CCI-779, NSC 683864)]" assigned_class=fulfilled
molecule="CC(C)C[C@H](NC(=O)[C@@H](NC(=O)c1cccc(-c2ccccc2)n1)[C@@H](C)O)B(O)O [CEP-18770 (Delanzomib)]" assigned_class="not fulfilled"
molecule="O=C(/C=C/c1cccc(S(=O)(=O)Nc2ccccc2)c1)NO [Belinostat (PXD101)]" assigned_class=fulfilled
molecule="COc1ccc2c(c1)c(CC(=O)N1CCOCC1)c(C)n2C(=O)c1ccc(Cl)cc1 [BML-190]" assigned_class="not fulfilled"

Exercise: Given the entry CC(C)c1cc(-c2n[nH]c(=O)n2-c2ccc3c(ccn3C)c2)c(O)cc1O [Ganetespib (STA-9090)] , answer whether its Dose.FC.CTG meets or surpasses -0.06 log2 fold change.
Key: not fulfilled

----------
Test system: ENR+CD organoids (ISC to Paneth cell differentiation)
Test: Primary screen: CCh-stimulated lysozyme secretion LYZ.S, 2.5-D 384-well ENR+CD organoid differentiation
Format: cell-based, mouse
Conditions: primary screen; dose 0.40 uM; FC vs plate median
Structures can show the parent of a compound that is named as a salt.
reported property: Dose.FC.LYZ.S

A selection of reference data follows.
compound=C=CCc1cccc(/C=N/NC(=O)CN2CCN(Cc3ccccc3)CC2)c1O reported_property=Dose.FC.LYZ.S meas_value="0.059 log2 fold change"
compound="O=C1CC[C@@]2(O)[C@H]3Cc4ccc(O)c5c4[C@@]2(CCN3CC2CC2)[C@H]1O5 [Naltrexone HCl]" reported_property=Dose.FC.LYZ.S meas_value="0.025 log2 fold change"
compound="CCN(CC)CCCC(C)Nc1nc(C)cc(Nc2ccc3nc(C)cc(N)c3c2)n1 (centres unmarked)" reported_property=Dose.FC.LYZ.S meas_value="0.090 log2 fold change"
compound=Cc1cc(OCc2nnc(SC3CCCC3)n2-c2cccnc2)ccc1-c1ccc(S(C)(=O)=O)cc1 reported_property=Dose.FC.LYZ.S meas_value="−0.228 log2 fold change"
compound=COc1ccccc1S(=O)(=O)Nc1ccc2c(c1)CN(C)C(=O)N2 reported_property=Dose.FC.LYZ.S meas_value="0.104 log2 fold change"

Look at each compound and report its Dose.FC.LYZ.S.
1. Cc1sc2c(c1C)C(c1ccc(Cl)cc1)=N[C@@H](CC(=O)Nc1ccc(O)cc1)c1nnc(C)n1-2
2. CC(=O)c1cc([N+](=O)[O-])c(Sc2ccc(F)cc2F)s1

Key:
["−0.350 log2 fold change", "0.065 log2 fold change"]

Exercise: For the compound "NCC(=O)Nc1ccc(-n2nc(C(F)(F)F)cc2-c2ccc3c(ccc4ccccc43)c2)cc1" , what Dose.FC.LYZ.S is on record?
Key: 0.113 log2 fold change
